pEC50 values, listed per item
system-under-test: Cynomolgus CD16A fused to IgG Fc (cynomolgus; human) (UniProt Q8SPW2)
Sequence (Q8SPW2 17-208): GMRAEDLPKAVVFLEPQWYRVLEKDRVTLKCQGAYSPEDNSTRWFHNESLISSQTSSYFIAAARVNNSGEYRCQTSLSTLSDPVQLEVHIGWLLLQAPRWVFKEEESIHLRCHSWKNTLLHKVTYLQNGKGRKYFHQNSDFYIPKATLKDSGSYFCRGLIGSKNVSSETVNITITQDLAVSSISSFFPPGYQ
assay-remarks: ELISA, coated antigen-IgG Fc
Schema: pEC50 number; meaning minus log10 of the concentration expressed in molar units.

| binder | pEC50 |
| --- | --- |
| scFv CD16A (CD16-1) (scFv, also called LSIV21 scFv) scFv: QVQLVQSGAEVKKPGESLKVSCKASGYTFTSYYMHWVRQAPGQGLEWMGIINPSGGSTSYAQKFQGRVTMTRDTSTSTVYMELSSLRSEDTAVYYCARGSAYYYDFADYWGQGTLVTVSSGGSGGSGGSGGSGGSGGSSYVLTQPSSVSVAPGQTATISCGGHNIGSKNVHWYQQRPGQSPVLVIYQDNKRPSGIPERFSGSNSGNTATLTISGTQAMDEADYYCQVWDNYSVLFGGGTKLTVLAAAGSHHHHHH | 7.79 |

Item: scFv CD16A (CD16-2) (scFv, also called CD16-2 scFv) scFv: QVQLVQSGAEVKKPGESLKVSCKASGYTFTSYYMHWVRQAPGQGLEWMGAIEPMYGSTSYAQKFQGRVTMTRDTSTSTVYMELSSLRSEDTAVYYCARGSAYYYDFADYWGQGTLVTVSSGGSGGSGGSGGSGGSGGSSYVLTQPSSVSVAPGQTATISCGGHNIGSKNVHWYQQRPGQSPVLVIYQDNKRPSGIPERFSGSNSGNTATLTISGTQAMDEADYYCQVWDNYSVLFGGGTKLTVLAAAGSHHHHHH | pEC50: 8.60

Note to self: pEC50 recorded for scFv CD16A (CD16-7) (scFv) scFv: QVQLVQSGAEVKKPGESLKVSCKASGYTFTNYYMHWVRQAPGQGLEWMGVIEPDGGRRTYAQKFQGRVTMTRDTSTSTVYMELSSLRSEDTAVYYCARGSAYYYDFADYWGQGTLVTVSSGGSGGSGGSGGSGGSGGSEIVLTQSPATLSLSPGERATLSCRGHQGVSGDVHWYQQKPGQAPRLLIYQANKRASGIPARFSGSGSGTEFTLTISSLEPEDFAVYYCQQWDNYSVTFGQGTKVEIKAAAGSHHHHHH was 8.80
